# System: HT-29
# test protocol: 3D Cell Proliferation Screen, HT-29
# Format: cell-based
# condition set: Homo sapiens, 120 h; HT-29 colon spheroids, 5 days; positive control
pIC50: −log10 of the molar value.

{"columns": ["smiles string", "pIC50"],
 "data": [
  ["CN[C@@H]1C[C@H]2O[C@@](C)([C@@H]1OC)n1c3ccccc3c3c4c(c5c6ccccc6n2c5c31)C(=O)NC4", 8.05]
]}

###

# Test system: A-549
# test protocol: 3D Cell Proliferation Screen, A-549
# Format: cell-based
# condition set: Homo sapiens, A549, 120 h; A-549 lung spheroids, 5 days; positive control

{"columns": ["molecule", "unit descriptor", "EC50"],
 "data": [
  ["CN[C@@H]1C[C@H]2O[C@@](C)([C@@H]1OC)n1c3ccccc3c3c4c(c5c6ccccc6n2c5c31)C(=O)NC4 [Staurosporine]", "nM", 17]
]}
